Target: FP receptors (Swiss 3T3 cells expressing FP receptors) (Mus musculus, UniProt P43117)
Construct: endogenous in cells; host or cells: Swiss 3T3 cells
Sequence (P43117 whole entry): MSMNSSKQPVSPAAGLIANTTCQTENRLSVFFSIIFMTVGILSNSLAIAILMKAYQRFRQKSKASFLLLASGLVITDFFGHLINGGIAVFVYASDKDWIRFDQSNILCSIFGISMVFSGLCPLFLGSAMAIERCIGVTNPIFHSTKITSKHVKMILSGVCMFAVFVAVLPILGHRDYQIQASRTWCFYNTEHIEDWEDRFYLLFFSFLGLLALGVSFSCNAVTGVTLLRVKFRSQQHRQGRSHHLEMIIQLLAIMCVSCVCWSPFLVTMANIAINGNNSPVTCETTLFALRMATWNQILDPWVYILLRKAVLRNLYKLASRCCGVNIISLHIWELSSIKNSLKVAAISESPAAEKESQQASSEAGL
Assay: FP receptor-mediated phosphoinositide turnover assay
Assay type: cell-based
Settings: Table 1; [3H]-IPs in Swiss 3T3 cells; read-out: FP functional EC50
pEC50: −log10 of the molar value.
metric: pEC50

molecule | result_number
O=C(O)CCC/C=C\C[C@@H]1C(C#C[C@@H](O)COc2cccc(Cl)c2)OC[C@@H]1O (stereo partly shown) [Compound 39] | 6.29

(a) O=C(O)CCC/C=C\C[C@@H]1[C@@H](OC[C@@H](O)COc2cccc(Cl)c2)[C@H](O)C[C@@H]1O [Compound 65]
(b) O=C(O)CCC/C=C\C[C@H]1[C@@H](O)CO[C@@H]1/C=C/[C@@H](O)COc1cccc(C(F)(F)F)c1 [Compound 26]
# input Among a and b , which shows a numerically higher pEC50 result? Refer to your chosen entry by its label in the reply.
# output a
(a: 7.24, b: 6.73)

(a) O=C(O)CCC/C=C\C[C@H]1CC[C@@H](O)[C@@H]1/C=C/[C@@H](O)CCc1ccccc1 [Compound 1]
(b) O=C(O)CC/C=C\CC[C@H]1[C@@H](O)CO[C@@H]1/C=C/[C@@H](O)COc1ccccc1 [Compound 52]
# input Could you tell me which of a and b has the lower pEC50 reading? Write the label of whichever entry you select.
# output b
